These data points were gathered from paper PMC12715762.

Assay: kinetic / aqueous solubility
Format: physicochemical
Details: aqueous medium, pH 6.8, pH 6.8, aqueous buffer, kinetic from dmso stock; read-out: Kinetic solubility (pH = 6.8)
I'd be grateful if you could share measured solubility kinetic for these entries.
Answers are plain numbers, in µM.

{"Compound": "Cn1cc2c(-c3cc(F)c(CN4Cc5ncccc5C4=O)c(F)c3)cccc2n1 [compound 1, reference compound]", "Value Unit": "µM", "Numeric Result": 9.75}

With those in mind, consider the next compound.
Specify reported solubility kinetic for the compound shown: Cn1cc2c(-c3cc(F)c(CN4Cc5ncccc5C4=O)c(F)c3)ccc(C(C)(C)O)c2n1
67.8

----------
Target: rat M1 (Rattus norvegicus)
Construct: expressed in transfected cells
Sequence (P08482 whole entry): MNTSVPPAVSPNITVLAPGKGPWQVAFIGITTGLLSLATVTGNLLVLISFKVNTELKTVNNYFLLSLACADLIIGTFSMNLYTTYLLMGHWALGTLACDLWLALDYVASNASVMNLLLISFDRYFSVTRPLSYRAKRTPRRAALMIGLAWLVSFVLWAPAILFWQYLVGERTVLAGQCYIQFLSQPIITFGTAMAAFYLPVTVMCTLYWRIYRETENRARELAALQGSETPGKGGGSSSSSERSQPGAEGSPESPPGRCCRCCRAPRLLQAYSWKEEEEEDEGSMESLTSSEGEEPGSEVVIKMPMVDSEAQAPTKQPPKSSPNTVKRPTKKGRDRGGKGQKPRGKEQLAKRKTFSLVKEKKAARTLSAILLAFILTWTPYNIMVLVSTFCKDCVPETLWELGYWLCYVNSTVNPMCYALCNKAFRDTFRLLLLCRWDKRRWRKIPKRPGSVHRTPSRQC
Test: M1 agonist calcium mobilization assay (rat)
Type: cell-based
Settings: rat M1, n = 5; read-out: rM1 Agonist EC50
pEC50: −log10 of the molar value.
Measured Parameter: pEC50

Specify reported pEC50 for the compound shown: Cn1cc2c(-c3cc(F)c(CN4Cc5ncccc5C4=O)c(F)c3)ccc(C(C)(C)O)c2n1 [compound 7]
< 5.00

----------
Assay: plasma protein binding, equilibrium dialysis (human)
Type: in vitro ADME
Conditions: pH 7.4, read-out: fu,plasma
Measured Parameter: fraction unbound at 6 h, 5 µM
Numbers only.

Specify reported fraction unbound at 6 h, 5 µM for the compound shown: Cn1cc2c(-c3cc(F)c(CN4Cc5ncccc5C4=O)c(F)c3)ccc(C(C)(C)O)c2n1 [compound 7]
0.037

----------
Assay: IV/PO pharmacokinetics (NHP)
Format: in vivo
Details: cynomolgus monkey, plasma; NHP (cyno), 3 mg/kg po
Measured Parameter: Cmax

Specify reported Cmax for the compound shown: Cn1cc2c(-c3cc(F)c(CN4Cc5ncccc5C4=O)c(F)c3)ccc(C(C)(C)O)c2n1 [compound 7]
1100 nM

----------
Assay: IV/PO pharmacokinetics (NHP)
Format: in vivo
Settings: cynomolgus monkey, plasma; NHP (cyno), 3 mg/kg po
Measured Parameter: Tmax
Record the result as number plus unit.

Specify reported Tmax for the molecule shown: Cn1cc2c(-c3cc(F)c(CN4Cc5ncccc5C4=O)c(F)c3)ccc(C(C)(C)O)c2n1
4.7 h

----------
Test: IV/PO pharmacokinetics (rat)
Type: in vivo
Settings: Sprague-Dawley, plasma; Rat (SD), 1 mg/kg iv; read-out: CLp
Measured Parameter: clearance
Record the result as number plus unit.

Specify reported clearance for the compound shown: Cn1cc2c(-c3cc(F)c(CN4Cc5ncccc5C4=O)c(F)c3)ccc(C(C)(C)O)c2n1
5.8 mL/min/kg

----------
Assay: IV/PO pharmacokinetics (rat)
Type: in vivo
Conditions: plasma; Rat (SD), 10 mg/kg po
Measured Parameter: Tmax
Record the result as number plus unit.

Specify reported Tmax for the compound shown: Cn1cc2c(-c3cc(F)c(CN4Cc5ncccc5C4=O)c(F)c3)ccc(C(C)(C)O)c2n1
1 h

----------
Assay: rat oral dose escalation PK study
Format: in vivo
Settings: Sprague-Dawley, rat, plasma, po, 30 mg/kg, rat PO 30 mpk, 10% Tween
Measured Parameter: Tmax (h)
Numbers only, in h.

Specify reported Tmax for the molecule shown: Cn1cc2c(-c3cc(F)c(CN4Cc5ncccc5C4=O)c(F)c3)ccc(C(C)(C)O)c2n1 [compound 7]
2.67

----------
Assay: rat oral dose escalation PK study
Type: in vivo
Settings: Sprague-Dawley, rat, plasma, po, 100 mg/kg, rat PO 100 mpk, 10% Tween
Measured Parameter: AUC (ng·h/mL)
One number for each entry, in ng·h/mL.

Specify reported AUC for the compound shown: Cn1cc2c(-c3cc(F)c(CN4Cc5ncccc5C4=O)c(F)c3)ccc(C(C)(C)O)c2n1
96800
